Attribute: DBIL
Species: Rattus norvegicus
Experiment: Open TG-GATES - Regimen: Daily Repeat
Assay type: toxicity, organism-based, Sprague-Dawley
Set-up: regimen Daily Repeat, gender Male, age 6 weeks
Conditions: in vivo, po, 0 mg/kg, […], tissue Plasma, route gavage, dose level Control, time 14 day

[
  {
    "COMPOUND": "CC[C@@H](CO)NCCN[C@@H](CC)CO",
    "OBSERVED_VALUE": "0 mg/dL"
  },
  {
    "COMPOUND": "CC(=O)N1CCN(c2ccc(OCC3COC(Cn4ccnc4)(c4ccc(Cl)cc4Cl)O3)cc2)CC1 (stereo not drawn)",
    "OBSERVED_VALUE": "0 mg/dL"
  },
  {
    "COMPOUND": "O=C(O)COc1nn(Cc2ccccc2)c2ccccc12",
    "OBSERVED_VALUE": "0.006 mg/dL"
  },
  {
    "COMPOUND": "CCN(CC)N=O",
    "OBSERVED_VALUE": "0.086 mg/dL"
  },
  {
    "COMPOUND": "CC(N)=O [ACETAMIDE]",
    "OBSERVED_VALUE": "0 mg/dL"
  }
]

Q: Read the entry CC(CCc1ccccc1)NCC(O)c1ccc(O)c(C(N)=O)c1 (stereo not drawn) and write its reported DBIL.
A: 0.014 mg/dL

Q: Query DBIL for CC(C)Cc1ccc(C(C)C(=O)O)cc1 (stereo not drawn)
A: 0 mg/dL

Q: Annotate the compound CC(=O)Nc1ccc2c(c1)Cc1ccccc1-2 with its measured DBIL.
A: 0.1 mg/dL

----------
gamma-GTP: recorded values
Species: Rattus norvegicus
Experiment: Open TG-GATES - Regimen: Daily Repeat
Assay type: toxicity, organism-based, Sprague-Dawley
Set-up: regimen Daily Repeat, gender Male, age 6 weeks
Conditions: in vivo, po, 0 mg/kg, […], tissue Plasma, route gavage, dose level Control, time 28 day
Please give a number only; it is taken to be in IU/L.

Study these solved cases before continuing.
[
  {
    "COMPOUND": "CC(=O)Nc1ccc2c(c1)Cc1ccccc1-2",
    "gamma-GTP [IU/L]": 1
  },
  {
    "COMPOUND": "CC(=O)N1CCN(c2ccc(OCC3COC(Cn4ccnc4)(c4ccc(Cl)cc4Cl)O3)cc2)CC1 (stereo not drawn)",
    "gamma-GTP [IU/L]": 1.2
  },
  {
    "COMPOUND": "CC(N)=O [ACETAMIDE]",
    "gamma-GTP [IU/L]": 0.9
  },
  {
    "COMPOUND": "CC[C@@H](CO)NCCN[C@@H](CC)CO",
    "gamma-GTP [IU/L]": 2.4
  },
  {
    "COMPOUND": "CC(C)Cc1ccc(C(C)C(=O)O)cc1 (stereo not drawn)",
    "gamma-GTP [IU/L]": 3
  }
]

Q: Find the measured gamma-GTP of O=C(O)COc1nn(Cc2ccccc2)c2ccccc12 and report it.
A: 1.8

Q: Please supply the value of reported gamma-GTP for the item CC(CCc1ccccc1)NCC(O)c1ccc(O)c(C(N)=O)c1 (stereo not drawn)
A: 1

Q: Give me measured gamma-GTP, please, for this compound: CCN(CC)N=O
A: 1.2

----------
Species on record: Rattus norvegicus
Test: Open TG-GATES - Regimen: Single
Assay type: toxicity, organism-based, Sprague-Dawley
Design: regimen Single, gender Male, age 6 weeks
Settings: in vivo, po, 0 mg/kg, 9 h, tissue Blood, route gavage, dose level Control
QUANTITY_MEASURED: Hb
The reply should consist of the numeric value with the unit placed after it.

Example results:
[
  {
    "COMPOUND": "CC(=O)N1CCN(c2ccc(OCC3COC(Cn4ccnc4)(c4ccc(Cl)cc4Cl)O3)cc2)CC1 (configuration not stated)",
    "OBSERVED_VALUE": "13 g/dL"
  },
  {
    "COMPOUND": "CCN(CC)N=O",
    "OBSERVED_VALUE": "13.7 g/dL"
  }
]

Q: State its Hb: CC(=O)Nc1ccc2c(c1)Cc1ccccc1-2
A: 13.9 g/dL

Q: Identify the reported Hb for the following entry. CC[C@@H](CO)NCCN[C@@H](CC)CO
A: 13.4 g/dL

Q: Check the records and state Hb for CC(CCc1ccccc1)NCC(O)c1ccc(O)c(C(N)=O)c1 (configuration not stated)
A: 13.4 g/dL

Q: Specify measured Hb for O=C(O)COc1nn(Cc2ccccc2)c2ccccc12 .
A: 13.5 g/dL

Q: Tell me Hb reported for CC(C)Cc1ccc(C(C)C(=O)O)cc1 (configuration not stated)
A: 13 g/dL

----------
Species on record: Rattus norvegicus
Assay: Open TG-GATES - Regimen: Daily Repeat
Format: toxicity, organism-based, Sprague-Dawley
Design: regimen Daily Repeat, gender Male, age 6 weeks
Details: in vivo, po, 0 mg/kg, […], tissue Plasma, route gavage, dose level Control, time 7 day
QUANTITY_MEASURED: Na (meq/L)
# value in meq/L; strip the unit string

Here are 5 molecules together with their reported answers.
[
  {
    "MOLECULE": "CC(=O)Nc1ccc2c(c1)Cc1ccccc1-2 [2-ACETYLAMINOFLUORENE]",
    "UNIT_STRING": "meq/L",
    "OBSERVED_VALUE": 140.4
  },
  {
    "MOLECULE": "CCN(CC)N=O [N-NITROSODIETHYLAMINE]",
    "UNIT_STRING": "meq/L",
    "OBSERVED_VALUE": 141
  },
  {
    "MOLECULE": "CC(CCc1ccccc1)NCC(O)c1ccc(O)c(C(N)=O)c1 (stereo not drawn) [LABETALOL]",
    "UNIT_STRING": "meq/L",
    "OBSERVED_VALUE": 143.2
  },
  {
    "MOLECULE": "CC(=O)N1CCN(c2ccc(OCC3COC(Cn4ccnc4)(c4ccc(Cl)cc4Cl)O3)cc2)CC1 (stereo not drawn) [KETOCONAZOLE]",
    "UNIT_STRING": "meq/L",
    "OBSERVED_VALUE": 141.8
  },
  {
    "MOLECULE": "CC[C@@H](CO)NCCN[C@@H](CC)CO [ETHAMBUTOL]",
    "UNIT_STRING": "meq/L",
    "OBSERVED_VALUE": 142.2
  }
]

Q: Input CC(C)Cc1ccc(C(C)C(=O)O)cc1 (stereo not drawn) [IBUPROFEN] , output reported Na.
A: 138.6

Q: Identify measured Na corresponding to CC(N)=O [ACETAMIDE]
A: 140.6

Q: For the molecule O=C(O)COc1nn(Cc2ccccc2)c2ccccc12 [BENDAZAC] , give its reported Na.
A: 141.2

----------
Species on record: Rattus norvegicus
Assay: Open TG-GATES - Regimen: Daily Repeat
Type: toxicity, organism-based, Sprague-Dawley
Parameters: regimen Daily Repeat, gender Male, age 6 weeks
Conditions: in vivo, po, 0 mg/kg, […], tissue Blood, route gavage, dose level Control, time 28 day
Rule: Lym of 80% or more gives True; anything lower gives False.

Reference set, count: 5
[
  {
    "COMPOUND": "CC(C)Cc1ccc(C(C)C(=O)O)cc1 (stereo not drawn)",
    "LABEL": "True"
  },
  {
    "COMPOUND": "CC(=O)N1CCN(c2ccc(OCC3COC(Cn4ccnc4)(c4ccc(Cl)cc4Cl)O3)cc2)CC1 (stereo not drawn)",
    "LABEL": "True"
  },
  {
    "COMPOUND": "CC[C@@H](CO)NCCN[C@@H](CC)CO",
    "LABEL": "True"
  },
  {
    "COMPOUND": "O=C(O)COc1nn(Cc2ccccc2)c2ccccc12",
    "LABEL": "True"
  },
  {
    "COMPOUND": "CC(=O)Nc1ccc2c(c1)Cc1ccccc1-2",
    "LABEL": "True"
  }
]

Q: Dear colleague, could you confirm whether CC(CCc1ccccc1)NCC(O)c1ccc(O)c(C(N)=O)c1 (stereo not drawn) has Lym at or above 80%?
A: False

----------
Species on record: Rattus norvegicus
Assay: Open TG-GATES - Regimen: Daily Repeat
Assay type: toxicity, organism-based, Sprague-Dawley
Parameters: regimen Daily Repeat, gender Male, age 6 weeks
Conditions: in vivo, po, 0 mg/kg, […], tissue Plasma, route gavage, dose level Control, time 7 day
QUANTITY_MEASURED: DBIL (mg/dL)
Give a bare numeral; the unit mg/dL is implied.

[
  {
    "MOLECULE": "CCN(CC)N=O [N-NITROSODIETHYLAMINE]",
    "UNIT_STRING": "mg/dL",
    "DBIL": 0.1
  },
  {
    "MOLECULE": "CC(CCc1ccccc1)NCC(O)c1ccc(O)c(C(N)=O)c1 (stereo not drawn) [LABETALOL]",
    "UNIT_STRING": "mg/dL",
    "DBIL": 0.012
  },
  {
    "MOLECULE": "CC(N)=O [ACETAMIDE]",
    "UNIT_STRING": "mg/dL",
    "DBIL": 0
  },
  {
    "MOLECULE": "CC(C)Cc1ccc(C(C)C(=O)O)cc1 (stereo not drawn) [IBUPROFEN]",
    "UNIT_STRING": "mg/dL",
    "DBIL": 0
  },
  {
    "MOLECULE": "CC(=O)Nc1ccc2c(c1)Cc1ccccc1-2 [2-ACETYLAMINOFLUORENE]",
    "UNIT_STRING": "mg/dL",
    "DBIL": 0.076
  }
]

Q: // Input: CC[C@@H](CO)NCCN[C@@H](CC)CO [ETHAMBUTOL] . Output its DBIL only.
A: 0

Q: Recall and state the measured DBIL for CC(=O)N1CCN(c2ccc(OCC3COC(Cn4ccnc4)(c4ccc(Cl)cc4Cl)O3)cc2)CC1 (stereo not drawn) [KETOCONAZOLE] .
A: 0

Q: Please look at this molecule and report its DBIL: O=C(O)COc1nn(Cc2ccccc2)c2ccccc12 [BENDAZAC]
A: 0.012
